Data provenance: paper PMC10786891

# Lookup of reported pKd keyed by entry
Target: T1, EsCas13d, nuclease-dead (Eubacterium siraeum, UniProt B0MS50, R295A;H300A;R849A;H854A)
T1 sequence: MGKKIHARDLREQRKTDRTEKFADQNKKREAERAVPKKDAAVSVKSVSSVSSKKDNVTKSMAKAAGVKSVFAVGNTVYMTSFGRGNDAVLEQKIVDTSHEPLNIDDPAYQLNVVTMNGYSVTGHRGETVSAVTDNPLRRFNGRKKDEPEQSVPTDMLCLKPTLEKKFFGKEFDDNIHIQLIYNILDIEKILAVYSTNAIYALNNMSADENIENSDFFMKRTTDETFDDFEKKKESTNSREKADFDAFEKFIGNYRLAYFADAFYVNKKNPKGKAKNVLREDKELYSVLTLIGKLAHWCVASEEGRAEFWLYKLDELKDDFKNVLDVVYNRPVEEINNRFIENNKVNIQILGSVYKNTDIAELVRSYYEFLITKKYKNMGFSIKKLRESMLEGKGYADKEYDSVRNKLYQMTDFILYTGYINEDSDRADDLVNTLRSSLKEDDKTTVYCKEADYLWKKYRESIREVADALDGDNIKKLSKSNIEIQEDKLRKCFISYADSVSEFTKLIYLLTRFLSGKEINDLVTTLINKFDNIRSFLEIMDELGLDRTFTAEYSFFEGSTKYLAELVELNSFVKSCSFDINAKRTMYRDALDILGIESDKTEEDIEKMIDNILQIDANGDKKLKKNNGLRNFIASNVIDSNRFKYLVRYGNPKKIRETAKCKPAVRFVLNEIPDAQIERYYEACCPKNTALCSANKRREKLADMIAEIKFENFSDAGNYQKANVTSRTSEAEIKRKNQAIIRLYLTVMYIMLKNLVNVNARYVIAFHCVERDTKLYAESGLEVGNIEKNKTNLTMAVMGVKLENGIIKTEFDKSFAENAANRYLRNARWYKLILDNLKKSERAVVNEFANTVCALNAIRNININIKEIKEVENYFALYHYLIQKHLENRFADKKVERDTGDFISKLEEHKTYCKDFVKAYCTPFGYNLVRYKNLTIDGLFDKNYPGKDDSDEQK
Experiment: crRNA (strand 1, pre-loaded); Mg2+; 40 mM Tris-HCl pH 7.5, 150 mM NaCl, 6 mM MgCl2, 1 mM DTT, 0.1% Tween-20, 0.2 mg/ml BSA; 25 C; 10 min per concentration, then washed
Settings: tags: His6-TwinStrep-SUMO cleaved; N-terminal SNAP kept (SNAP-Surface 488); label: 3' end held by stalled T7 RNA polymerase
In simple prose, pKd is minus the logarithm base ten of a concentration in moles per litre.

Below, 5 binders whose answers are already recorded.
Look at this binder and give its reported pKd. target 2 MT 5'PFS UCU 3'PFS UUG (mixed) RNA 1: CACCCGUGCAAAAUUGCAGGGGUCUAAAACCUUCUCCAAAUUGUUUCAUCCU RNA 2: GGGAAUGGAUCCACAUCUACGAAUUCUCUAGGAUGAAACAAUUUGGAGAAGUUGAGAUCGGAAGAGCACACGU 7.77

Another binder to look at: target 1 insC 3' of 5,insA 3' of 4 (mixed) RNA 1: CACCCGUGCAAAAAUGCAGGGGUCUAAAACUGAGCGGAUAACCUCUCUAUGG RNA 2: GGGAAUGGAUCCACAUCUACGAAUUCGUACCAUAGAGAGGUUAUCCGCCAUCACCGAGAUCGGAAGAGCACACGU 7.86

Another binder to look at: target 1 A1G,G15A (mixed) RNA 1: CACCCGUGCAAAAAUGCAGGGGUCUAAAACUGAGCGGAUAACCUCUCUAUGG RNA 2: GGGAAUGGAUCCACAUCUACGAAUUCGUACCAUAGAAAGGUUAUCCGCUCGCCGAGAUCGGAAGAGCACACGU 7.95

Another binder to look at: target 1 MT 5'PFS GCA 3'PFS CCG (mixed) RNA 1: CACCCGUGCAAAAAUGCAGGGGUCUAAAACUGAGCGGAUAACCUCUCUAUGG RNA 2: GGGAAUGGAUCCACAUCUACGAAUUCGCACCAUAGAGAGGUUAUCCGCUCACCGAGAUCGGAAGAGCACACGU 7.73

Another binder to look at: target 1 insA 3' of 22 (mixed) RNA 1: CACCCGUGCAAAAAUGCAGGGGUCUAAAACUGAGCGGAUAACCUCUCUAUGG RNA 2: GGGAAUGGAUCCACAUCUACGAAUUCGUACACAUAGAGAGGUUAUCCGCUCACCGAGAUCGGAAGAGCACACGU 7.83

Further cases:
Look at this binder and give its reported pKd. target 1 MT 5'PFS CCU 3'PFS CAC (mixed) RNA 1: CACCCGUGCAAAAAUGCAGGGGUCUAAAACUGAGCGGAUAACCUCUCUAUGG RNA 2: GGGAAUGGAUCCACAUCUACGAAUUCCCUCCAUAGAGAGGUUAUCCGCUCACACAGAUCGGAAGAGCACACGU 7.82

Another binder to look at: target 1 insC 3' of 10,insG 3' of 7 (mixed) RNA 1: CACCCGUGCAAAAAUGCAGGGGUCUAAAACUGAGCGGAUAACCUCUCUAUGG RNA 2: GGGAAUGGAUCCACAUCUACGAAUUCGUACCAUAGAGAGGUUCAUCGCGCUCACCGAGAUCGGAAGAGCACACGU 7.77

Another binder to look at: target 1 insG 3' of 19,insG 3' of 16 (mixed) RNA 1: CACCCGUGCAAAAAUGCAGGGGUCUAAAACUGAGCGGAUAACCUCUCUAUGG RNA 2: GGGAAUGGAUCCACAUCUACGAAUUCGUACCAUGAGAGGAGGUUAUCCGCUCACCGAGAUCGGAAGAGCACACGU 7.01
